test system: c-Abl (mouse); assay: phosphorylation enrichment, bacterial display (enrichment ratio); higher = better substrate or ligand; peptides without Tyr show the background;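 further: 11-residue human phosphosite peptides and single-mutation variants displayed on the E. coli surface, counted by deep sequencing, each peptide's frequency after selection divided by its frequency in the unselected input library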;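 further: frequency after pTyr selection over input frequency; kinase dosed for 20-30% of maximal phosphorylation in three min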
Entries annotated with measured phosphorylation enrichment
Write no unit; give the number alone.

Below: 8 sequences and their reported phosphorylation enrichment.
• YDGKEYDPVEA [MAPRE2_Y167] = 0.935
• SKGYAYVHFDS [PABPC5_Y149] = 0.953
• RDLTDYLMKIL [ACTA1_Y190] = 0.791
• AVLQPYIFVAT [CFTR_Y1014] = 0.978
• LARDMYDKEFF [MET_Y1230_YF] = 0.519
• GPQGFYSNKLV [PTPN14_Y506_V505F] = 0.586
• SSMSDYNPLEK [MYOC_Y479_I477S] = 0.657
• TACNPYKPPGP = 1.14

Record WIPIQYPIISE [NOG_Y222] . Reported phosphorylation enrichment: 0.59

Record KDHPDYKFQLR [SOX10_Y171_P175L_YF] . Reported phosphorylation enrichment: 0.512

Record LPVHFYGHVEH [PYGM_Y204] . Reported phosphorylation enrichment: 1.26

Record ENPLDYGSAWA [AR_Y395] . Reported phosphorylation enrichment: 0.709

----------
Entries annotated with measured phosphorylation enrichment
target: Hck (UniProt P08631); experiment: phosphorylation enrichment, bacterial display (enrichment ratio); higher = better substrate or ligand; peptides without Tyr show the background
Sequence (P08631 whole entry, looked up): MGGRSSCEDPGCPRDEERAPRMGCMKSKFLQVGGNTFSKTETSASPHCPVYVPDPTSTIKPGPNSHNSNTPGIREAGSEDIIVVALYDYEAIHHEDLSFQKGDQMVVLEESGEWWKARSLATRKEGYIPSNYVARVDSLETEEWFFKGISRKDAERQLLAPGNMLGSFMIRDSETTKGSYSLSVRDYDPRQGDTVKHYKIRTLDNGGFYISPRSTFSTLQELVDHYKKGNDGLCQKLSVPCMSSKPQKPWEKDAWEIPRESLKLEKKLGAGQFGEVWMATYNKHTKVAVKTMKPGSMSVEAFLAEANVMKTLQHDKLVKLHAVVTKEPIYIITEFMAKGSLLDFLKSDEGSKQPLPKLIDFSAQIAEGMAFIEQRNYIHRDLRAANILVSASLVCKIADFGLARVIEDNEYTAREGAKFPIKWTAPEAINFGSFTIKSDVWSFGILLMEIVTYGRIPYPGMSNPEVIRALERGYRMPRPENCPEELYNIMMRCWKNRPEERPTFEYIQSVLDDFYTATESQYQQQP
Write no unit; give the number alone.

Below: 4 sequences and their reported phosphorylation enrichment.
* MLEAPYVDRNS [F10_Y384_V382A] | 0.497
* NNRVFYGNSDR [RS1_Y177] | 0.337
* QQMGTYGVRAA [ICAM2_Y260_R256Q] | 3.77
* QSSEGYDLGDR [KIAA1210_Y564_G565D] | 0.546

Record INQGPYENRSV [ATP6V1B1_Y462] . Reported phosphorylation enrichment: 0.423

Record IVKAFYVHARA [AIPL1_Y268_R270H_YF] . Reported phosphorylation enrichment: 0.488

Record IYHLSYLHNCE [PDE6B_Y227] . Reported phosphorylation enrichment: 1.75

Record QCQLKYSETPF [SIX6OS1_Y129_Y125C] . Reported phosphorylation enrichment: 0.749

Record EKMWTYMRSAE [GRIA4_Y695] . Reported phosphorylation enrichment: 0.432

Record FGSRLYKFAFK [FANCD2_Y458_L456R_YF] . Reported phosphorylation enrichment: 0.439

Record FSLIHYASIVD [MYH7_Y582_G584S] . Reported phosphorylation enrichment: 0.575

----------
tested on: c-Src; test: phosphorylation enrichment, bacterial display (enrichment ratio); higher = better substrate or ligand; peptides without Tyr show the background
Entries annotated with measured phosphorylation enrichment
Write no unit; give the number alone.

Record ATDLAYFLVCK [ASL_Y375_R379C_YF] . Reported phosphorylation enrichment: 0.655

Record PEPTGYSAELS [EZR_Y499_A494P] . Reported phosphorylation enrichment: 0.461

Record AASTDYYKRGD [PDHA1_Y242] . Reported phosphorylation enrichment: 0.523

Record ESFRLYPPVPQ [CYP4B1_Y377] . Reported phosphorylation enrichment: 0.391

Record DVLEFYNSKKT [PAK1_Y131] . Reported phosphorylation enrichment: 0.504

Record RSRQIYDAFIM [GRK3_Y109_YF] . Reported phosphorylation enrichment: 6.12

Record GIMEEYQLPYY [BMPR1A_Y453_V450M] . Reported phosphorylation enrichment: 3.76

Record KVASVYEAPGF [NT5C_Y65] . Reported phosphorylation enrichment: 5.05

Entry source: the supplement of paper PMC10065799
